This collection of values is drawn from the Deep4Chem optical property database.

Please respond with reported absorption maximum for every item in the list.
# experiment.description: solvent given as SMILES
# test.parameters: in C1CCCCC1
Answers are plain numbers, in nm.

C#Cc1ccc(C#Cc2cnc(C#Cc3ccccc3)nc2)cc1 = 325

Provide the reported absorption maximum of each entry below, same order.
1. COC(=O)c1nc(-c2cccc3ccccc23)oc1C
2. CC(=O)c1c2c(cc3cc(N(C)C)ccc13)CCC2
3. Cc1ccc(C)c(C)c1
4. CN(C)c1ccc(C#Cc2ccc(C=O)cc2)cc1
5. CCCCCCCCOc1ccc(C2=C(c3ccc(OCCCCCCCC)cc3)C(C)(C)c3ccccc32)cc1
6. Cc1ccc(C)cc1
7. COc1cc(C(=O)O)ccc1O

stdout:
318
363
263.78
381.5
281
262.88
287.2

Return reported absorption maximum values for all items listed beneath this line.
1. Cc1ccc(/C=C(\c2ccccc2)c2nc3ccccc3o2)cc1
2. CCC1=C(C)C2=Cc3cc(I)c(I)n3[B-](F)(F)[N+]2=C1C
3. Clc1ccc(/C=C(\c2ccccc2)c2nc3ccccc3s2)cc1
4. O=C1NC(=O)/C(=C\c2ccccc2O)S1
5. Nc1cccc2c1-c1ccccc1C2=O
6. CCCC1(CCC)c2ccccc2-c2ccccc21
7. C(=C\c1nc2ccccc2s1)/c1ccccc1

stdout:
1. 325
2. 542
3. 340
4. 347
5. 427
6. 304
7. 340

// each listed molecule needs a value for absorption maximum
1. c1ccc(-c2nn(-c3ccccc3)c3nc4ccc(-n5c6ccccc6c6ccccc65)cc4cc23)cc1
2. F[B-]1(F)n2c(Nc3cccc4cccnc34)ccc2C(c2ccccc2)=C2C=CC(Cl)=[N+]21
3. CCCC1(CCC)c2cc(-c3ccc(C(C)(C)C)cc3)ccc2-c2ccc(-c3ccc4c(c3)C(CCC)(CCC)c3cc(-c5ccc6c(c5)C(CCC)(CCC)c5cc(-c7ccc8c(c7)C(CCC)(CCC)c7cc(-c9ccc(C(C)(C)C)cc9)ccc7-8)ccc5-6)ccc3-4)cc21
4. CCc1c(C(=O)OC)c(C(=O)OC)c2ccc(-c3ccccc3)nn12
5. Cc1ccc(C2=C3C=CC(/C=C/c4ccccc4)=[N+]3[B-](F)(F)n3c(Cl)ccc32)cc1
6. CN(C)c1ccc(/C=C/c2nc3ccccc3o2)cc1

stdout:
1. 419.11
2. 560
3. 366
4. 399.4
5. 569
6. 380

Here are 4 molecules. What values of absorption maximum were reported for them?
1. CC(C)c1cc(C(C)C)c(B2c3cc(N4c5ccccc5C(C)(C)c5ccccc54)ccc3N(c3ccccc3)c3ccc(N4c5ccccc5C(C)(C)c5ccccc54)cc32)c(C(C)C)c1
2. F[B-]1(F)n2c(cc3c4ccccc4oc32)C(c2ccccc2)=C2C=c3c(oc4ccccc34)=[N+]21
3. CCCCC(CC)CN1C(=O)c2cccc3c(C#Cc4ccc(N(c5ccc(C#Cc6ccc7c8c(cccc68)C(=O)N(CC(CC)CCCC)C7=O)cc5)c5ccc(C#Cc6ccc7c8c(cccc68)C(=O)N(CC(CC)CCCC)C7=O)cc5)cc4)ccc(c23)C1=O (stereo not drawn)
4. CC1(C)CC(/N=C/c2ccc3ccc4cccc5ccc2c3c45)CC(C)(C)N1[O]

stdout:
[374.83, 586, 444, 360]

Give one value of absorption maximum per listed molecule.
1. c1ccc(-c2cc3cccc[n+]3[b-]3ccc(-c4cc[b-]5c(c4)c(-c4ccccc4)cc4cccc[n+]54)cc32)cc1
2. CC(C)[Si]1(C(C)C)c2cc(C#N)ccc2-c2ccc(N(c3ccccc3)c3ccccc3)cc21

stdout:
[517, 391]

Answer for every listed entry: what is its absorption maximum? The entries follow.
1. CN(C)c1ccc2nc(-c3ccc(C(=O)OC[C@H](NC(=O)OC(C)(C)C)C(=O)OCc4ccccc4)cc3)sc2c1
2. COC(=O)c1ccc(-c2nc3ccc(N(C)C)cc3s2)cc1
3. Nc1ccc2[nH]ncc2c1
4. CC(C)[Si]1(C(C)C)c2cc(N(C)C)ccc2-c2ccc(C(F)(F)F)cc21
5. CN(C)c1ccccc1
6. COc1ccc(C2=C(c3ccc(OC)cc3)C(C)(C)c3ccccc32)cc1
7. CCC1(CC)c2cc(C#Cc3cc(C#Cc4ccc5c(c4)C(CC)(CC)c4cc(N(c6ccccc6)c6ccccc6)ccc4-5)c4ccc5c(C#Cc6ccc7c(c6)C(CC)(CC)c6cc(N(c8ccccc8)c8ccccc8)ccc6-7)cc(C#Cc6ccc7c(c6)C(CC)(CC)c6cc(N(c8ccccc8)c8ccccc8)ccc6-7)c6ccc3c4c65)ccc2-c2ccc(N(c3ccccc3)c3ccccc3)cc21
8. CCOC(=O)/C=C/c1ccc(N(C)C)cc1

stdout:
1: 390; 2: 387; 3: 326; 4: 331; 5: 293.94; 6: 283; 7: 500; 8: 353

Batch request: absorption maximum for each of the following molecules.
1. N#Cc1c2nc3ccccn3c2nc2c1nc1ccccn12
2. C[Si](C)(C)C#Cc1cccc2ccccc12
3. N#CC(C#N)=C(c1cccc(N(c2ccccc2)c2ccccc2)c1)c1cccc(N(c2ccccc2)c2ccccc2)c1

stdout:
[410, 316, 367.69]
